# assay-system: T1, Bcat-Halo (UniProt P35222 1-781)
# T1 sequence (looked up): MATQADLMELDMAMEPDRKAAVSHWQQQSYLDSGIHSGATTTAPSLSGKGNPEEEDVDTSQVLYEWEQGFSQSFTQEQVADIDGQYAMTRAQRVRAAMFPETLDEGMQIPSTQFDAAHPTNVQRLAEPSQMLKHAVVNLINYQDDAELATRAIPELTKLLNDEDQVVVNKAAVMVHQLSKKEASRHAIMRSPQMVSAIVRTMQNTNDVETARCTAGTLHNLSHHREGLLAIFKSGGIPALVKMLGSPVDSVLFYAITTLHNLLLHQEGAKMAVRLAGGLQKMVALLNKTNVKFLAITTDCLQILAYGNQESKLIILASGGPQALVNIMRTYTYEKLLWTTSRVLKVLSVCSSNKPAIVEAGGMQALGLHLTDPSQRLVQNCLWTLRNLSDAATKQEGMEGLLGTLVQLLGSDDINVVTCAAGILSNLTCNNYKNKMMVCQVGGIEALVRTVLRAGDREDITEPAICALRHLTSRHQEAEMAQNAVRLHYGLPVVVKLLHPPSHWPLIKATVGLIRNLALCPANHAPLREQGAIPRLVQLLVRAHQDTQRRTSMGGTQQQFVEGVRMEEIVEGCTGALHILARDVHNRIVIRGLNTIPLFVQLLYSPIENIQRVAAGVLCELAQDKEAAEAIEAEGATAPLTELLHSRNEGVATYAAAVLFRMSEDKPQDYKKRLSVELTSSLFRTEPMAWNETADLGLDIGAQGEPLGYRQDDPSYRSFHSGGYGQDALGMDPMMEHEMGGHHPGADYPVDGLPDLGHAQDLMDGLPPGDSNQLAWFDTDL
# test-method-notes: cell-based or functional assay
Starred links: 1 amine or outer side, 2 acyl side, 3 side chain; linkers in the order of their positions; H or OH if unused. Positions of bridges follow the written chain, without caps; N, C: chain ends. Non-standard residues stand in square brackets, D forms with d. Primed or numbered codes have the meaning given here. PyrS2″ = (S)-3-amino-1-((pent-4-en-1-yloxy)carbonyl)pyrrolidine-3-carboxylic acid (stapling residue), C=CCCCOC(=O)N1CC[C@@](N[*:1])(C(=O)[*:2])C1; B5(4) = 2,2-bis(4-pentenyl)glycine = 2-amino-2-(pent-4-en-1-yl)hept-6-enoic acid (stitching residue), C=CCCCC(CCCC=C)(N[*:1])C(=O)[*:2]; Phe(3-COOH) = N[C@@H](Cc1cccc(C(=O)O)c1)C(=O)O; Bta = N[C@@H](Cc1csc2ccccc12)C(=O)O; hTyr = N[C@@H](CCc1ccc(O)cc1)C(=O)O; αAllylPro = C=CC[C@@]1(C(=O)O)CCCN1; tBuAla = CC(C)(C)C[C@H](N)C(=O)O; 3Thi = N[C@@H](Cc1ccsc1)C(=O)O; PyrS2(4) = not defined here; hSer = N[C@@H](CCO)C(=O)O
Just a reminder that ties go to not satisfied: only NanoBRET Abs IC50 strictly below 30 µM counts as satisfied.

(Q) # TODO verify NanoBRET Abs IC50 < 30 µM strictly for this binder: Ac-[αAllylPro]D[tBuAla][B5(4)]DYAA[Phe(3-COOH)][hSer][PyrS2″][3Thi][Bta]Q-NH2 (staple 1-4, 4-11; also: later eluting HPLC isomer composition) [I-2125]
(A) not satisfied

(Q) # TODO verify NanoBRET Abs IC50 < 30 µM strictly for this binder: Ac-[αAllylPro]D[tBuAla][B5(4)]DHAA[Phe(3-COOH)]L[PyrS2″][3Thi][Bta]Q-NH2 (staple 1-4, 4-11; also: earlier eluting HPLC isomer composition) [I-2122]
(A) not satisfied

(Q) # TODO verify NanoBRET Abs IC50 < 30 µM strictly for this binder: Ac-[αAllylPro]D[tBuAla][B5(4)]DHAA[Phe(3-COOH)]L[PyrS2″][3Thi][Bta]Q-NH2 (staple 1-4, 4-11; also: later eluting HPLC isomer composition) [I-2123]
(A) satisfied

(Q) # TODO verify NanoBRET Abs IC50 < 30 µM strictly for this binder: Ac-[αAllylPro]D[tBuAla][B5(4)]DHAA[Phe(3-COOH)][hSer][PyrS2(4)][3Thi][Bta]Q-NH2 (staple 1-4, 4-11; reading uncertain; also: earlier eluting HPLC isomer composition, printed as Ac-PL3-Asp-Npg-B5-Asp-His-Ala-Ala-3COOHF-Hse-PyrS2-3Thi-BztA-Gln-NH2) [I-2120]
(A) not satisfied

(Q) # TODO verify NanoBRET Abs IC50 < 30 µM strictly for this binder: Ac-[αAllylPro]D[tBuAla][B5(4)]D[Phe(3-COOH)]A[dA]FL[PyrS2″][3Thi][Bta]A-NH2 (staple 1-4, 4-11; also: later-eluting HPLC isomer composition) [I-2097]
(A) satisfied

(Q) # TODO verify NanoBRET Abs IC50 < 30 µM strictly for this binder: Ac-[αAllylPro]D[tBuAla][B5(4)]D[hTyr]AA[Phe(3-COOH)][hSer][PyrS2″][3Thi][Bta]Q-NH2 (staple 1-4, 4-11; also: earlier eluting HPLC isomer composition) [I-2116]
(A) not satisfied

(Q) # TODO verify NanoBRET Abs IC50 < 30 µM strictly for this binder: Ac-[αAllylPro]D[tBuAla][B5(4)]DWAA[Phe(3-COOH)][hSer][PyrS2″][3Thi][Bta]Q-NH2 (staple 1-4, 4-11) [I-2128]
(A) satisfied
